# Test system: K562
# ASSAY_NOTES: NCI tumour cell line growth inhibition, 48 h
Calls of active or inactive are those of the source. Rule as the data show it: active = GI50 up to about 1.1 µM and inactive = higher.
Classes used: active, inactive

# MOLECULE, TESTED_TARGET, GROUP
rows = [
    ("Nc1ccc(C2NC(=O)Cc3c2ccc2ccccc32)cc1 (centres undefined)", "K562", "inactive"),
    ("O=[N+]([O-])c1cc(C2ON=C(c3ccccc3)N2C23CC4CC(CC(C4)C2)C3)ccc1Cl (centres undefined)", "K562", "inactive"),
    ("CCOC(=O)c1csc(NC(=O)C(C)N2CCCC2)n1 (centres undefined)", "K562", "inactive"),
    ("CN1CN(C2OC(CO)C(O)C2O)c2nc(N)[nH]c(=O)c21 (centres undefined)", "K562", "inactive"),
    ("O=C(/C(=C/c1ccccc1)c1ccccc1)N1c2ccccc2CC1c1c[nH]c2ccccc12 (centres undefined)", "K562", "inactive"),
    ("Cc1sc2ccccc2[n+]1CCC(=O)O", "K562", "inactive"),
    ("COc1ccc(CC2NCCc3c2[nH]c2ccccc32)cc1 (centres undefined)", "K562", "inactive"),
    ("CCC[C@H](O)[C@@H](CNc1cc(NC(C)=O)nc(NC(C)=O)n1)N(Cc1ccccc1)Cc1ccccc1", "K562", "inactive"),
    ("O=c1c2c3c(sc2nc2n1N=C(c1ccc([N+](=O)[O-])cc1)CS2)CCCC3", "K562", "inactive"),
    ("CC(=O)NNc1nc(C)c(C(/C=C/c2ccc3c(c2)OCO3)=N/Nc2ccccc2)s1", "K562", "inactive"),
    ("O=S(=O)(Nc1ccccc1)c1ccc(-c2c3nc(c(-c4ccc(S(=O)(=O)Nc5ccccc5)cc4)c4ccc([nH]4)c(-c4ccc(S(=O)(=O)Nc5ccccc5)cc4)c4nc(c(-c5ccc(S(=O)(=O)Nc6ccccc6)cc5)c5ccc2[nH]5)C=C4)C=C3)cc1", "K562", "inactive"),
    ("O=C(CC1=Nc2nnc(CCCCCCCc3nnc4n3C(=O)C(CC(=O)c3ccc5ccccc5c3)=N4)n2C1=O)c1ccc2ccccc2c1", "K562", "inactive"),
    ("CSc1nc2cc(S(=O)(=O)N3CCCCC3)ccc2s1", "K562", "inactive"),
    ("COc1cccc(C2c3cc4c(cc3OC(N3CCCCC3)C2C)OCO4)c1O (centres undefined)", "K562", "inactive"),
    ("CN(CC(N)=O)C(=O)N(CCCl)N=O", "K562", "inactive"),
    ("NS(=O)(=O)c1nnc(NC(=O)C23CC4CC(CC(C4)C2)C3)s1", "K562", "inactive"),
    ("C=C1c2nc3ccccc3n2C=C(c2ccc(OC)cc2)N1c1ccc(OCCN2CCOCC2)cc1", "K562", "inactive"),
    ("CCCCC1CCCCCCc2[nH]c(/C=C3\\N=C(c4ccc[nH]4)C=C3OC)cc21 (centres undefined)", "K562", "active"),
    ("O=C1CC2C(=O)N(Cc3ccccc3)C1C(S(=O)(=O)c1ccccc1)C2S(=O)(=O)c1ccccc1 (centres undefined)", "K562", "inactive"),
]

====

# Test system: NCI-H460
# ASSAY_NOTES: NCI tumour cell line growth inhibition, 48 h
Activity calls are given as the source filed them. Cut-off read from the data, not from the text of the source: active = GI50 up to about 1.1 µM and inactive = higher. Non-standard residues stand in square brackets, D forms with d. Residues, ends and D or L forms follow the SMILES beside them. *: point of attachment. X30 = COC1=CC(=O)N(C(=O)[C@@H](O*)C(C)C)[C@H]1Cc1ccccc1; NMeL = CN[C@@H](CC(C)C)C(=O)O; Cbz = O=C(OCc1ccccc1)*
Classes used: TRUE for active, FALSE for inactive

# MOLECULE, GROUP
measured = [
    ("O=C(Nc1ccc(F)cc1)c1cc2c(cc1Cl)Sc1nccn1S2(=O)=O", "FALSE"),
    ("CCOC(=O)CNC(=O)C(C)NC(=O)C(NC(=O)CC(c1ncc[nH]1)c1ncc[nH]1)C(C)CC (stereo not drawn)", "FALSE"),
    ("COC1=CC(=O)N(C(=O)[C@@H](OC(=O)[C@@H]2CCCN2C(=O)[C@@H]2CCCN2C(=O)[C@H](CC(C)C)N(C)C(=O)[C@@H](NC(=O)[C@@H](NC(=O)OCc2ccccc2)C(C)C)C(C)C)C(C)C)[C@H]1Cc1ccccc1 (Cbz-VV[NMeL]PP-X30)", "FALSE"),
    ("CCN1CCC(O)(/C=C/c2ccc(C(C)C)cc2)C(C(=O)/C=C/c2ccc(C(C)C)cc2)C1 (stereo not drawn)", "FALSE"),
    ("CC(=O)OC12CCCCC1C1(CCCC1)NC2=O (stereo not drawn)", "FALSE"),
    ("O=S(OC12CC3CC(CC(C3)C1)C2)c1cc(Cl)cc(Cl)c1OCc1ccccc1 (stereo not drawn)", "FALSE"),
    ("C=COC(=O)N1C2CCCC(Cl)(C(C)=O)C1CC2 (stereo not drawn)", "FALSE"),
    ("CN1CN(C2OC(CO)C(O)C2O)c2nc(N)[nH]c(=O)c21 (stereo not drawn)", "FALSE"),
    ("O=C(c1ccc2ccccc2c1O)N1CCCCC1", "FALSE"),
    ("CCC[C@H](O)[C@@H](CNc1cc(NC(C)=O)nc(NC(C)=O)n1)N(Cc1ccccc1)Cc1ccccc1", "FALSE"),
    ("CCCCCCCCCC(=O)NC(Cc1ccc(O)cc1)C(=O)NCCCNCCCCNCCCNC(=O)[C@@H](N)CCCN=C(N)N (stereo partly drawn)", "FALSE"),
    ("CC(=O)NNc1nc(C)c(C(/C=C/c2ccc3c(c2)OCO3)=N/Nc2ccccc2)s1", "FALSE"),
    ("CC(C)C(=O)OCN(C)c1nc(N(C)COC(=O)C(C)C)nc(N(C)COC(=O)C(C)C)n1", "FALSE"),
    ("C/C(=N\\NC(=S)N1CC2CCC(CC2)C1)c1cccc(C)n1", "TRUE"),
    ("Cc1cc2c(cc1C(=O)CCC(=O)O)CC1(C2)Cc2cc(C)c(C(=O)CCC(=O)O)cc2C1", "FALSE"),
    ("CC(=O)NC1=C(C)C(=O)c2c(nc3n2CC[C@H]3OC(C)=O)C1=O", "FALSE"),
    ("C/C=C/c1c(O)c(=O)c2c(OC)cc(OC)c3c4c(OC)cc(OC)c5c(=O)c(O)c(/C=C/C)c(c1c23)c54", "FALSE"),
    ("CCOC(=O)C1(C#N)C(C#N)(C#N)C1(C#N)C#N", "FALSE"),
]

====

# Tested on: HOP-92
# ASSAY_NOTES: NCI tumour cell line growth inhibition, 48 h
Calls of active or inactive are those of the source. Cut-off read from the data, not from the text of the source: active = GI50 up to about 1.1 µM and inactive = higher.
Outcomes: active, inactive

# COMPOUND, GROUP
data = [
    ("C[C@]12CC/C(=N\\O)C=C1CC[C@@H]1C2CC[C@@]2(C)C1CC[C@@H]2OC1CCCCO1 (stereo not given in full)", "inactive"),
    ("C[C@@H](NC1CCC[C@@H]1O)c1ccccc1 (stereo not given in full)", "inactive"),
    ("O=C(Cc1csc(-c2nc(CC(=O)NNc3ccccc3)cs2)n1)NNc1ccccc1", "inactive"),
    ("N#CC1(C#N)C2C=CC(C3CC=CC32)C1(C#N)C#N (stereo not given)", "inactive"),
    ("O=CN1CCN(c2ccc3ccc(O)nc3n2)CC1", "inactive"),
    ("CC1(Cl)C(=O)NC(=O)N([C@H]2C[C@H](O)[C@@H](CO)O2)C1N=[N+]=[N-] (stereo not given in full)", "inactive"),
    ("COc1ccc(CC2NCCc3c2[nH]c2ccccc32)cc1 (stereo not given)", "inactive"),
    ("CC[C@@]1(O)CC(OC2CC(N3CCOCC3)C(O)C(C)O2)c2c(O)c3c(c(O)c2[C@H]1O)C(=O)c1cccc(O)c1C3=O (stereo not given in full)", "active"),
    ("CC(C)CC(=O)NC(Nc1ccc(S(=O)(=O)Nc2ncccn2)cc1)(C(F)(F)F)C(F)(F)F", "inactive"),
    ("Cc1ccc(C(=O)N/N=C2/C(=O)c3c4ccccc4cc4cccc2c34)cc1", "inactive"),
]

====

# System: U-251
# ASSAY_NOTES: NCI tumour cell line growth inhibition, 48 h
Activity calls are given as the source filed them. No stated cut-off is given here; in the data, active = GI50 up to about 1.1 µM and inactive = higher.

# COMPOUND, TESTED_TARGET, GI50
rows = [
    ("SC1=C2CCCCCC2=NC2(CCCCCC2)S1", "U-251", "32 µM (inactive)"),
    ("COC(=O)c1c2c(cc3c1CC1(Cc4cc5c(c(C(C)=O)c4C1)CCCC5)C3)CCCC2 (stereo unspecified)", "U-251", "> 100 µM (inactive)"),
    ("O=C1c2cc3c(cc2CC12Cc1cc4c(cc1C2)CCC4)CCC3", "U-251", "> 100 µM (inactive)"),
    ("CC(NC1=NCCO1)c1ccco1 (stereo unspecified)", "U-251", "> 100 µM (inactive)"),
    ("Cc1cc(C)c(C(=O)c2nnc3ccccc3c2N)c(C)c1", "U-251", "28.7 µM (inactive)"),
    ("CC(C)Cc1c(C#N)c(C#N)c(N)n1Cc1ccccc1", "U-251", "> 100 µM (inactive)"),
    ("C/C(Cl)=N\\OC(=O)Nc1ccccc1C(F)(F)F", "U-251", "> 100 µM (inactive)"),
    ("CC1=CC(=O)c2cccc(NC3=NCCO3)c21", "U-251", "64 µM (inactive)"),
    ("CCc1c(OC(C)=O)c2c(NC3OC(COC(C)=O)C(OC(C)=O)C(OC(C)=O)C3OC(C)=O)nc(OC)nc2oc1=O (stereo unspecified)", "U-251", "> 100 µM (inactive)"),
    ("CC(=O)NNc1nc(C)c(C(/C=C/c2ccc3c(c2)OCO3)=N/Nc2ccccc2)s1", "U-251", "> 100 µM (inactive)"),
    ("CCN(CC)CCC(=O)Nc1ccc2c(c1)C(=O)c1ccc(NC(=O)CCN(CC)CC)cc1C2=O", "U-251", "9.18 µM (inactive)"),
]

Data provenance is ChEMBL document CHEMBL1201862.
